- System: C. glabrata TGL00277
- ASSAY_NOTES: microbe, parasite or virus in culture
- Assay type: cell-based
- SETTINGS: strain no. 33, TGL00277, parental EF1620, FKS mutant
molecules and their reported MIC

Below: 2 molecules and their reported MIC.
CC[C@H](C)C[C@H](C)CCCCCCCCC(=O)N[C@H]1C[C@@H](O)[C@@H](NCCNC(=O)CCc2ccc3n2[B-](F)(F)[N+]2=C(C)C=C(C)C2=C3)NC(=O)[C@@H]2[C@@H](O)CCN2C(=O)[C@H]([C@H](O)CCN)NC(=O)[C@H]([C@H](O)[C@@H](O)c2ccc(O)cc2)NC(=O)[C@@H]2C[C@@H](O)CN2C(=O)[C@H]([C@@H](C)O)NC1=O = >64 µg/mL
CC[C@H](C)C[C@H](C)CCCCCCCCC(=O)N[C@H]1C[C@@H](O)[C@@H](NCCN)NC(=O)[C@@H]2[C@@H](O)CCN2C(=O)[C@H]([C@H](O)CCN)NC(=O)[C@H]([C@H](O)[C@@H](O)c2ccc(OCc3cn(CCCNC(=O)c4ccc(-c5c6ccc(=[N+](C)C)cc-6oc6cc(N(C)C)ccc56)c(C(=O)[O-])c4)nn3)cc2)NC(=O)[C@@H]2C[C@@H](O)CN2C(=O)[C@H]([C@@H](C)O)NC1=O = >64 µg/mL

Now examine the next entry.
*Q* Query: MIC; subject: CC[C@H](C)C[C@H](C)CCCCCCCCC(=O)N[C@H]1C[C@@H](O)[C@@H](NCCN)NC(=O)[C@@H]2[C@@H](O)CCN2C(=O)[C@H]([C@H](O)CCN)NC(=O)[C@H]([C@H](O)[C@@H](O)c2ccc(OCc3cn(CCCNc4ccc([N+](=O)[O-])c5nonc45)nn3)cc2)NC(=O)[C@@H]2C[C@@H](O)CN2C(=O)[C@H]([C@@H](C)O)NC1=O
*A* >64 µg/mL

The reported numbers originate from patent US20230173018A1.
